System: P. falciparum K1 strain
Assay: in vitro antiplasmodial activity, parasite lactate dehydrogenase (pLDH) assay
Assay type: cell-based, Plasmodium falciparum
Settings: Plasmodium falciparum, K1; pure compounds and reference drugs; 72 h; mean ± SD of three determinations; read-out: IC50 ± SD P. falciparum K1
Parameter: log10 of IC50. Scope: all listed entries.
The base-10 logarithm of IC50, taken with IC50 in µM, is what appears here.

In the examples that follow, each entry is paired with its recorded log10 of IC50.
{"columns": ["molecule", "log10 of IC50"],
 "data": [
  ["O=c1c2ccc(O)cc2oc2cccc(O)c12 [Compound 3, 1,6-dihydroxyxanthone]", 2.35],
  ["COc1c(O)ccc2oc3c(O)cccc3c(=O)c12 [Compound 7, 2,5-dihydroxy-1-methoxyxanthone]", 1.67],
  ["COc1cccc2c(=O)c3c(O)cccc3oc12 [Compound 2, 1-hydroxy-5-methoxyxanthone]", 2.21],
  ["O=c1c2cccc(O)c2oc2cccc(O)c12 [Compound 4, 1,5-dihydroxyxanthone]", 2.03],
  ["C[C@H]1[C@H](OC(=O)CCC(=O)O)O[C@@H]2O[C@@]3(C)CC[C@H]4[C@H](C)CC[C@@H]1[C@@]24OO3 [Artesunate, artesunate, reference compound]", -2.52],
  ["CC1(C)C=Cc2cc3c(=O)c4c(O)cccc4oc3c(O)c2O1", 1.30]
]}

stdin: Retrieve log10 of IC50 measured for COc1ccc2oc3cccc(O)c3c(=O)c2c1 [Compound 1, 1-hydroxy-7-methoxyxanthone] and print it.
stdout: 2.54

stdin: Retrieve log10 of IC50 measured for COc1cc(O)c2c(=O)c3cccc(O)c3oc2c1 [Compound 6, 1,5-dihydroxy-3-methoxyxanthone] and print it.
stdout: 2.30

----------
Experiment: in vitro cytotoxicity, MTT assay
Format: cell-based
Conditions: African green monkey, Vero cells; pure compounds and doxorubicin; 48 h; mean ± SD of three determinations
experimental-endpoint: CC50 at 48 h (µM)
The figure you give is taken to be in µM; do not add the unit.

In the examples that follow, each entry is paired with its recorded CC50 at 48 h.
{"columns": ["molecule", "experimental-endpoint", "endpoint-result"],
 "data": [
  ["CC1(C)C=Cc2cc3c(=O)c4c(O)cccc4oc3c(O)c2O1 [Compound 5, rheediachromenoxanthone]", "CC50 at 48 h", 112],
  ["COc1cccc2c(=O)c3c(O)cccc3oc12 [Compound 2, 1-hydroxy-5-methoxyxanthone]", "CC50 at 48 h", 62]
]}

Consider the record given below.
stdin: Retrieve CC50 at 48 h measured for COc1cccc2c1C(=O)c1c(O)c3c(c(O)c1C2=O)C[C@@](O)(C(=O)CO)C[C@@H]3O[C@H]1C[C@H](N)[C@H](O)[C@H](C)O1 [Doxorubicin, reference compound] and print it.
stdout: 3.35

----------
Test: in vitro cytotoxicity, MTT assay
Assay type: cell-based
Conditions: African green monkey; pure compounds and doxorubicin; 48 h; mean ± SD of three determinations; read-out: CC50 ± SD Vero cells
experimental-endpoint: CC50 (µM)
The figure you give is taken to be in µM; do not add the unit.

stdin: Retrieve CC50 measured for O=c1c2ccc(O)cc2oc2cccc(O)c12 [Compound 3, 1,6-dihydroxyxanthone] and print it.
stdout: 183

----------
Assay: in vitro cytotoxicity, MTT assay
Format: cell-based
Details: African green monkey, Vero cells; pure compounds and doxorubicin; 48 h; mean ± SD of three determinations
experimental-endpoint: CC50 at 48 h

In the examples that follow, each entry is paired with its recorded CC50 at 48 h.
{"columns": ["molecule", "experimental-endpoint", "endpoint-result"],
 "data": [
  ["O=c1c2cccc(O)c2oc2cccc(O)c12 [Compound 4, 1,5-dihydroxyxanthone]", "CC50 at 48 h", "417 µM"],
  ["COc1cc(O)c2c(=O)c3cccc(O)c3oc2c1 [Compound 6, 1,5-dihydroxy-3-methoxyxanthone]", "CC50 at 48 h", "210 µM"],
  ["COc1c(O)ccc2oc3c(O)cccc3c(=O)c12 [Compound 7, 2,5-dihydroxy-1-methoxyxanthone]", "CC50 at 48 h", "588 µM"]
]}

Consider the record given below.
stdin: Retrieve CC50 at 48 h measured for COc1ccc2oc3cccc(O)c3c(=O)c2c1 [Compound 1, 1-hydroxy-7-methoxyxanthone] and print it.
stdout: 196 µM

Data origin: paper PMC11270968
